Provide the recorded activity at 0.01 µM for the entries that follow.
# Test system: MCF-7 cells
# Protocol: Effect of compounds on MCF-7 proliferation (E2-induced growth)
# Assay type: cell-based
# Measurement Context: Homo sapiens, MCF7, 144 h; 0.01 μM, with E2 (1 nM), 6 days; read-out: % of E2-Induced Response (Conc. of DIM Analogs)

What the record says about Clc1ccc2[nH]cc(Cc3c[nH]c4ccc(Cl)cc34)c2c1 [5-Chloro-DIM, 5,5'-dichloro-diindolylmethane] : activity at 0.01 µM is 98.4%

Sure, the documented activity at 0.01 µM for Fc1ccc2[nH]cc(Cc3c[nH]c4ccc(F)cc34)c2c1 [5-Fluoro-DIM, 5,5'-difluoro-diindolylmethane] is 90.3%

Lookup result for Cn1cc(Cc2cn(C)c3ccccc23)c2ccccc21 [N-Methyl-DIM, N,N'-dimethyl-diindolylmethane] ; measured activity at 0.01 µM: 82.8%

// sample COc1ccc2[nH]cc(Cc3c[nH]c4ccc(OC)cc34)c2c1 [5-Methoxy-DIM, 5,5'-dimethoxy-diindolylmethane] , its activity at 0.01 µM was 87.2%

Entry Brc1ccc2[nH]cc(Cc3c[nH]c4ccc(Br)cc34)c2c1 [5-Bromo-DIM, 5,5'-dibromo-diindolylmethane] — recorded activity at 0.01 µM = 99%

According to the records, this compound c1ccc2c(Cc3c[nH]c4ccccc34)c[nH]c2c1 [DIM, 3,3'diindolylmethane, reference compound] displays activity at 0.01 µM of 107%

Cited source: patent US5948808A
